target: CDK12 (aa686-1082)/cyclinK complex (Homo sapiens); construct: A CDK12 (aa686-1082)/cyclinK complex (50 nM); assay: In-vitro enzymatic inhibitory activity testing, CDK12 inhibition assay (Caliper EZ Reader II); assay type: biochemical; conditions: CDK12/cyclinK 50 nM, 180 min at 27° C.; read-out: CDK12 IC50
Property: IC50; scope: individual compounds

Example entries begin here.
- compound: "FC(F)(F)c1cnc(NC2COC3(CCCNC3)C2)nc1-c1c[nH]c2nc(N3CCOCC3)ccc12 (stereo not shown) [Compound 50]"
  target entity: "CDK12 (aa686-1082)/cyclinK complex (Homo sapiens)"
  IC50: "5 to 50 µM"
- compound: "C[C@@H](CO)Nc1ncc(F)c(-c2c[nH]c3c(P(C)(C)=O)cccc23)n1 [Compound 157]"
  target entity: "CDK12 (aa686-1082)/cyclinK complex (Homo sapiens)"
  IC50: "> 50 µM"
- compound: "CP(C)(=O)c1cccc2c(-c3nc(NC[C@H]4C[C@](C)(O)C4)ncc3C(F)(F)F)c[nH]c12 [Compound 127]"
  target entity: "CDK12 (aa686-1082)/cyclinK complex (Homo sapiens)"
  IC50: "> 50 µM"

# IC50 lookup, item CP(C)(=O)c1cccc2c(-c3nc(NCC4CC4CO)ncc3C(F)(F)F)c[nH]c12 (single isomer, unassigned) [Compound 144] > 50 µM

Fill in: IC50 of Cc1cnc(N[C@@H](C)CO)nc1-c1c[nH]c2c(P(C)(C)=O)cccc12 [Compound 178] is ___ > 50 µM

Look up IC50: CN(C)CC1CCCC1Nc1ncc(C(F)(F)F)c(-c2c[nH]c3c(P(C)(C)=O)cccc23)n1 (single isomer, unassigned) [Compound 135] 0.2 to 5 µM

State the recorded IC50 for this entry: CC[C@@H](CO)Nc1ncc(C(F)(F)F)c(-c2c[nH]c3c(P(C)(C)=O)cccc23)n1 [Compound 88] > 50 µM

* * *

test: Caco-2 membrane permeability and efflux rate; assay type: in vitro ADME; conditions: human, Caco-2, Caco-2, 5 μM, top end to basal end
Label scheme for Papp A→B at 2 h, 5 μM: lower than 4 ×10⁻⁶ cm/s is FALSE, 4 ×10⁻⁶ cm/s and above is TRUE.

Check out these entries, answers already filled in.
- compound: "CP(C)(=O)c1cccc2c(-c3nc(NC4(CO)CCOC4)ncc3C(F)(F)F)c[nH]c12 (single isomer, unassigned)"
  classification: "FALSE"
- compound: "CP(C)(=O)c1cccc2c(-c3nc(NCC(F)(F)CO)ncc3C(F)(F)F)c[nH]c12"
  classification: "FALSE"
- compound: "C[C@@H](CO)Nc1ncc(C(F)(F)F)c(-c2c[nH]c3c(P(C)(C)=O)cc(F)cc23)n1"
  classification: "TRUE"
- compound: "CC[C@@H](CO)Nc1ncc(C(F)(F)F)c(-c2c[nH]c3c(P(C)(C)=O)cccc23)n1"
  classification: "FALSE"

Kindly review the next compound as well.
Could you tell me if the measured Papp A→B at 2 h, 5 μM of "C[C@H](CO)Nc1ncc(C(F)(F)F)c(-c2c[nH]c3c(P(C)(C)=O)cccc23)n1" reaches 4 ×10⁻⁶ cm/s or more? FALSE

* * *

target: CDK2/cyclinE1 complex (Homo sapiens, UniProt P24941); assay: In-vitro enzymatic inhibitory activity testing, CDK2 inhibition assay (Caliper EZ Reader II); details: CDK2/cyclinE1 0.5 nM, 180 min at 27° C.
pIC50: −log10 of the molar value.
This listing pairs compounds with measured pIC50.

The cases that follow already have their pIC50 on record.
- compound: "CP(C)(=O)c1cccc2c(-c3nc(NC4CC45CCNC5)ncc3C(F)(F)F)c[nH]c12 (single isomer, unassigned) [Compound 111]"
  target entity: "CDK2/cyclinE1 complex (Homo sapiens, UniProt P24941)"
  pIC50: "4.30 to 5.30"
- compound: "Cc1noc(C)c1-c1ccc2c(-c3nc(N[C@@H]4CCC45CNC5)ncc3C(F)(F)F)c[nH]c2n1"
  target entity: "CDK2/cyclinE1 complex (Homo sapiens, UniProt P24941)"
  pIC50: "4.30 to 5.30"
- compound: "C[C@H](Nc1ncc(C(F)(F)F)c(-c2c[nH]c3c(P(C)(C)=O)cccc23)n1)C(C)(C)O"
  target entity: "CDK2/cyclinE1 complex (Homo sapiens, UniProt P24941)"
  pIC50: "4.30 to 5.30"

Sample "C[C@H](O)CNc1ncc(C(F)(F)F)c(-c2c[nH]c3c(P(C)(C)=O)cccc23)n1" — what was its pIC50? 4.30 to 5.30

Quick check: pIC50 of "C[C@H](CO)Nc1ncc(C(F)(F)F)c(-c2c[nH]c3c(P(C)(C)=O)cccc23)n1" ? 5.30 to 6.70

* * *

system: Caco-2 cells; assay: Caco-2 membrane permeability and efflux rate; format: in vitro ADME; details: Caco-2, 5 μM, 2 hours
measured quantity: ER (efflux rate)
// no unit string in output, number only

Worked cases, ER (efflux rate) given:
- molecule: "CC(CO)CNc1ncc(C(F)(F)F)c(-c2c[nH]c3c(P(C)(C)=O)cccc23)n1 (single isomer, unassigned) [Compound 150]"
  target entity: "Caco-2 cells"
  value: 5.95
- molecule: "CP(C)(=O)c1cccc2c(-c3nc(NCC4CC4CO)ncc3C(F)(F)F)c[nH]c12 (single isomer, unassigned) [Compound 144]"
  target entity: "Caco-2 cells"
  value: 12.7

Any idea what ER (efflux rate) was measured for CC(O)[C@H](C)Nc1ncc(C(F)(F)F)c(-c2c[nH]c3c(P(C)(C)=O)cccc23)n1 (single isomer, unassigned) [Compound 130] ? 6.03

// returns reported ER (efflux rate) for input CP(C)(=O)c1cccc2c(-c3nc(NC4(CO)CCOC4)ncc3C(F)(F)F)c[nH]c12 (single isomer, unassigned) [Compound 119] 15.3

* * *

Each entry below lists one item and its recorded IC50 value.
Biological target: CDK12 (aa686-1082)/cyclinK complex (Homo sapiens, UniProt Q9NYV4)
Construct: A CDK12 (aa686-1082)/cyclinK complex (50 nM)
Sequence (Q9NYV4 686-1082, species assumed): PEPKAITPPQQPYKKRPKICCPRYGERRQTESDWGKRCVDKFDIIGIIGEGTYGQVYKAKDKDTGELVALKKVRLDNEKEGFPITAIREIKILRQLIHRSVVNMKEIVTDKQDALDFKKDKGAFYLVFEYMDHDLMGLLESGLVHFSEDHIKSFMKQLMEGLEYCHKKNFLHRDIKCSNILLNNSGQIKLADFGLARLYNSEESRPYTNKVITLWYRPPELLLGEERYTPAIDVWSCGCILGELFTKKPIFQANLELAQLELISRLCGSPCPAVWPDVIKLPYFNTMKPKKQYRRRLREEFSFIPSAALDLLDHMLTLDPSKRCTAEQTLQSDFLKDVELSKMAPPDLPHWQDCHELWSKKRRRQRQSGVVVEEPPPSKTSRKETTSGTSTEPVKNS
Sequence (O75909 whole entry partner, species assumed, the tested form may be a part): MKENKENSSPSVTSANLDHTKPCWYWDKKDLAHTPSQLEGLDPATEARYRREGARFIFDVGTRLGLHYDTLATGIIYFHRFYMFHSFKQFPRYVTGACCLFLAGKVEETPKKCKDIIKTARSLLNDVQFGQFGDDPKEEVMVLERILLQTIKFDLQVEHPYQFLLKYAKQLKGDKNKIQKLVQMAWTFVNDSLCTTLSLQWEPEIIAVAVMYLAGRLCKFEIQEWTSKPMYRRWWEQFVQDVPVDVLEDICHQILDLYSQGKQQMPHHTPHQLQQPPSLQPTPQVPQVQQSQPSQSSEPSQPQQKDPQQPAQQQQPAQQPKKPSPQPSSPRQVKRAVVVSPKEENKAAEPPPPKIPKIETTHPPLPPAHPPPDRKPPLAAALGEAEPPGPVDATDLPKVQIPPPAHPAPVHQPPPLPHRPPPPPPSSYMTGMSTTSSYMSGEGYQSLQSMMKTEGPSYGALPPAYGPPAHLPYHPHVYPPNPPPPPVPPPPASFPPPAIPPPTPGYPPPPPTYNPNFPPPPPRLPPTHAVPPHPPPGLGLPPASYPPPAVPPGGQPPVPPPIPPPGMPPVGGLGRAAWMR
Assay: In-vitro enzymatic inhibitory activity testing, CDK12 inhibition assay (Caliper EZ Reader II)
Type: biochemical
Details: CDK12/cyclinK 50 nM, 180 min at 27° C.; read-out: CDK12 IC50
Experimental: An assay was carried out in a U-bottom 384-well plate (coming, 4512#), and the reaction temperature was 27° C. […] A reaction mixture was analyzed on Caliper EZ Reader II by electrophoretic separation of a fluorogenic substrate and a phosphorylated product. Data were calculated by using GraphPad Prism version 6.0, and IC50 values were adjusted and obtained by using a nonlinear regression model of a dose response curve.

Example compounds with recorded IC50:
- compound: "CP(C)(=O)c1cccc2c(-c3nc(NCC4(O)CCOC4)ncc3C(F)(F)F)c[nH]c12 (single isomer, unassigned) [Compound 121]"
  IC50: "> 50 µM"
- compound: "CP(C)(=O)c1cccc2c(-c3nc(NCC(O)C4CCC4)ncc3C(F)(F)F)c[nH]c12 (single isomer, unassigned) [Compound 139]"
  IC50: "> 50 µM"
- compound: "C[C@@H](CO)Nc1ncc(C(F)(F)F)c(-c2c[nH]c3c(P(C)(C)=O)c(C#N)ccc23)n1"
  IC50: "> 50 µM"

Then there is this compound:
Please look up its IC50: "C[C@H](CO)Nc1ncc(C(F)(F)F)c(-c2c[nH]c3c(P(C)(C)=O)cccc23)n1" 5 to 50 µM

* * *

Each item that follows carries a reported IC50.
molecular target: CDK9/cyclinT1 complex (Homo sapiens, UniProt P50750); test: In-vitro enzymatic inhibitory activity testing, CDK9 inhibition assay (Caliper EZ Reader II); assay type: biochemical; settings: CDK9/cyclinT1 8 nM, 180 min at 27° C.
Sequence (P50750 whole entry, species assumed): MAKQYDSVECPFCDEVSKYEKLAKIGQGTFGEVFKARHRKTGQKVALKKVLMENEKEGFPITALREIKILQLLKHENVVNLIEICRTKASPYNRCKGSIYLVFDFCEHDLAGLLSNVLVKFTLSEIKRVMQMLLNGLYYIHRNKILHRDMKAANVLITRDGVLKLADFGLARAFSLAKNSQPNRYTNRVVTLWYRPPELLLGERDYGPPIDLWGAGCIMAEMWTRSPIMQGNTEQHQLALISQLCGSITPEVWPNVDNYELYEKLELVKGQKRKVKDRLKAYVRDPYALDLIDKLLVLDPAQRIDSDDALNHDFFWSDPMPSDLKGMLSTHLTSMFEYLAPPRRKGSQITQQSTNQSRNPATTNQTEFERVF
Sequence (O60563 whole entry partner, species assumed): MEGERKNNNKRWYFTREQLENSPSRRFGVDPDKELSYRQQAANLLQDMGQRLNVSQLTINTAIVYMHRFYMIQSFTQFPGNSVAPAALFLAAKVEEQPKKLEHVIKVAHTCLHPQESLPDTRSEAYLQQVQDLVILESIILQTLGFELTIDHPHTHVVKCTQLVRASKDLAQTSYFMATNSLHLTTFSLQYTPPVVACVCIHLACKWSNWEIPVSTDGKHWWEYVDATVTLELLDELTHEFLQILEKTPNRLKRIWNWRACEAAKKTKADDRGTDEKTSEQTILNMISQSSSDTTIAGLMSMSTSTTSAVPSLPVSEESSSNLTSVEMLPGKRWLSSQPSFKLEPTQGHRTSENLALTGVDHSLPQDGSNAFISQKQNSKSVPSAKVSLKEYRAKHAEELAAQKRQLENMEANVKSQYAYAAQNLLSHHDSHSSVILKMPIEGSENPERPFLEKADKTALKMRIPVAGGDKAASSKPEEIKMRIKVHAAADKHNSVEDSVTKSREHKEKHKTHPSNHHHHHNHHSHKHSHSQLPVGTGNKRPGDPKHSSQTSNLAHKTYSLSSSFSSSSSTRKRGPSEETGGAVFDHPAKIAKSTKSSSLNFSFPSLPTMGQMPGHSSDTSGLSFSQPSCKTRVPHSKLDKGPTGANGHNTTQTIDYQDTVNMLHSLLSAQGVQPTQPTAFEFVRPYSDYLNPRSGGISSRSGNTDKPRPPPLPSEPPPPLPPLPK

Some solved cases for reference:
- molecule: "FC(F)(F)c1cnc(NCC2CCNC2)nc1-c1c[nH]c2nc(N3CCOCC3)ccc12 (stereo not drawn)"
  value: "5 to 50 µM"
- molecule: "CP(C)(=O)c1cccc2c(-c3nc(NC[C@H]4C[C@](C)(O)C4)ncc3C(F)(F)F)c[nH]c12"
  value: "> 50 µM"
- molecule: "CP(C)(=O)c1cccc2c(-c3nc(NCCO)ncc3C(F)(F)F)c[nH]c12"
  value: "> 50 µM"

Checklist item: IC50 tested on CDK9/cyclinT1 complex (Homo sapiens, UniProt P50750), entry CC1(C)COCC(Nc2ncc(C(F)(F)F)c(-c3c[nH]c4c(P(C)(C)=O)cccc34)n2)CN1 (single isomer, unassigned) [Compound 92] , value? 5 to 50 µM

Enter reported IC50 observed with CDK9/cyclinT1 complex (Homo sapiens, UniProt P50750) for "CP(C)(=O)c1cccc2c(-c3nc(NC4(CO)CCCC4)ncc3C(F)(F)F)c[nH]c12" > 50 µM

Could you share what IC50 was measured for "CP(C)(=O)c1cccc2c(-c3nc(N[C@@H]4CCC45CNC5)ncc3C(F)(F)F)c[nH]c12" , tested on CDK9/cyclinT1 complex (Homo sapiens, UniProt P50750)? 5 to 50 µM

Can you look up IC50 on CDK9/cyclinT1 complex (Homo sapiens, UniProt P50750) for "N#Cc1ccc2c(-c3nc(N[C@H]4CC[C@H](N)C4)ncc3C(F)(F)F)c[nH]c2n1" ? 5 to 50 µM

# query: IC50 | item CC1(C)COCC(Nc2ncc(C(F)(F)F)c(-c3c[nH]c4c(P(C)(C)=O)cccc34)n2)CN1 (single isomer, unassigned) [Compound 91] | system: CDK9/cyclinT1 complex (Homo sapiens, UniProt P50750) > 50 µM

The measured values listed here are drawn from patent US20240124504A1.
